# target desc: PIK3CA (human)
# method description: Enzyme Assay
Measured pIC50 accompanies every entry in the list below.
pIC50 here is simply -log10 of the concentration when that concentration is written in mol/L.

INSERT INTO assay_data (smiles_code, numeric_value) VALUES
  ('Cc1nc(C(=O)Nc2cc(-c3cncc(NS(C)(=O)=O)c3)cc3[nH]ncc23)cs1', 5.10),
  ('CC(C)N1CCN(Cc2cnc(-c3cc(-c4cccc5[nH]ccc45)cc4[nH]ncc34)o2)CC1', 5.30),
  ('COc1ncc(-c2cc(-c3ncc(CN4C[C@@H](C)O[C@@H](C)C4)o3)c3cn[nH]c3c2)cc1NS(C)(=O)=O', 6.30),
  ('Cc1ccc(-c2cc(-c3cccc4[nH]ccc34)cc3[nH]ncc23)s1', 5.10),
  ('Cc1nc(C(=O)Nc2cc(-c3cnc(Cl)c(NS(C)(=O)=O)c3)cc3[nH]ncc23)cs1', 6.50);

Asked: Specify measured pIC50 for Cc1coc(-c2cc(-c3cccc4[nH]ccc34)cc3[nH]ncc23)n1 .
Given back: 4.90

Asked: Specify measured pIC50 for C[C@@H]1CN(Cc2coc(-c3cc(-c4cccc5[nH]ccc45)cc4[nH]ncc34)n2)C[C@H](C)O1 .
Given back: 4.90

----------
Measured pIC50 accompanies every entry in the list below.
# target desc: PIK3CD (Human)
pIC50 here is simply -log10 of the concentration when that concentration is written in mol/L.

Before answering, review these 5 worked examples.
INSERT INTO assay_data (smiles_code, numeric_value) VALUES
  ('Cc1cccc(C(=O)Nc2cc(-c3cccc4[nH]ccc34)cc3[nH]ncc23)n1', 7.80),
  ('Cc1nc(C(=O)Nc2cc(-c3cnc(Cl)c(N(C)S(=O)(=O)c4ccccc4)c3)cc3[nH]ncc23)cs1', 6.30),
  ('Cc1nc(C(=O)Nc2cc(-c3cnc(Cl)c(NS(=O)(=O)c4ccccc4)c3)cc3[nH]ncc23)cs1', 8.90),
  ('Cc1nc(C(=O)Nc2cc(-c3cccc4c3ccn4C)cc3[nH]ncc23)cs1', 5.30),
  ('Cc1ccc(-c2cc(-c3cccc4[nH]ccc34)cc3[nH]ncc23)o1', 6.90);

Asked: Look up and report pIC50, with PIK3CD (Human) as system, for O=C(Nc1cc(-c2cccc3[nH]ccc23)cc2[nH]ncc12)c1csc(Cc2ccccc2)n1
Given back: 7.10

Asked: Look up and report pIC50, with PIK3CD (Human) as system, for O=C(Nc1cc(-c2cccc3[nH]ccc23)cc2[nH]ncc12)c1cccc(CN2CCCCC2)n1
Given back: 7.90

Asked: Look up and report pIC50, with PIK3CD (Human) as system, for Cn1nccc1C(=O)Nc1cc(-c2cccc3[nH]ccc23)cc2[nH]ncc12
Given back: 6.10

Asked: Look up and report pIC50, with PIK3CD (Human) as system, for Cc1nc(C(=O)Nc2cc(-c3ccc(Cl)c(NS(C)(=O)=O)c3)cc3[nH]ncc23)cs1
Given back: 6.20

----------
# target desc: PIK3CB (Human) (UniProt P42338)
# Sequence (P42338 whole entry, looked up): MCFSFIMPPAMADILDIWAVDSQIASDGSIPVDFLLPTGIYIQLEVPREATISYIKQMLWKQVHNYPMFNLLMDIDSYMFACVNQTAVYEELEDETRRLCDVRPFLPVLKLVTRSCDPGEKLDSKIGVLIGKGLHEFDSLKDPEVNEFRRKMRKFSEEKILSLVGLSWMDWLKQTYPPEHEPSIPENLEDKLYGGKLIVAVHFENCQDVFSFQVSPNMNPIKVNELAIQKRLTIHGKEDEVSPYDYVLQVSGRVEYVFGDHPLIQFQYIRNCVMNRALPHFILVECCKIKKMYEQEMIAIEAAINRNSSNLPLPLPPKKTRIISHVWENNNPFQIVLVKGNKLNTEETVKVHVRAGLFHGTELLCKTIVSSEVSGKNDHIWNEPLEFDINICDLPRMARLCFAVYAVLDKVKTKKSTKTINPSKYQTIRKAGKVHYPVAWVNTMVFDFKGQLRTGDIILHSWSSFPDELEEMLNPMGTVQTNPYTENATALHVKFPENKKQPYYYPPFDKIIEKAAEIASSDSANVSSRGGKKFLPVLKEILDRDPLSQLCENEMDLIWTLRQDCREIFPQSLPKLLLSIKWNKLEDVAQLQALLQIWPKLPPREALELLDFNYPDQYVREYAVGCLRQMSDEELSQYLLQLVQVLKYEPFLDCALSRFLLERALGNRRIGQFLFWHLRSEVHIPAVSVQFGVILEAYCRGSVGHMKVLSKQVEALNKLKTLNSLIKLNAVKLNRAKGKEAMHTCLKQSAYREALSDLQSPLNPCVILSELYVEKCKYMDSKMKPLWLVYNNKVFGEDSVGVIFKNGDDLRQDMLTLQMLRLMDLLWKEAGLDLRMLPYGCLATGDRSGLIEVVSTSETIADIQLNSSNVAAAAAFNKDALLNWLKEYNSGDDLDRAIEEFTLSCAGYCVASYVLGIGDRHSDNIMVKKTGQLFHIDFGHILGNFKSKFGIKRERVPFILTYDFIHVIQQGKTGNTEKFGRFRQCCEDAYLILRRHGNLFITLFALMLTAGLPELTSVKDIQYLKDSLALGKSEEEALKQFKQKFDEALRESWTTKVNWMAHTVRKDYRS
Measured IC50 accompanies every entry in the list below.
Please state the figure in µM; there is no need to write the unit.

Before answering, review these 5 worked examples.
INSERT INTO results (smiles_code, target_desc, numeric_value) VALUES
  ('C[C@@H]1CN(Cc2nc(C(=O)Nc3cc(-c4cccc5[nH]ccc45)cc4[nH]ncc34)cs2)C[C@H](C)O1', 'PIK3CB (Human) (UniProt P42338)', 5.01),
  ('O=C(Nc1cc(-c2cccc3[nH]ccc23)cc2[nH]ncc12)c1cscn1', 'PIK3CB (Human) (UniProt P42338)', 12.6),
  ('Cc1nc(C(=O)Nc2cc(-c3cc(F)cc4[nH]ccc34)cc3[nH]ncc23)cs1', 'PIK3CB (Human) (UniProt P42338)', 3.16),
  ('CC(C)N1CCN(Cc2nc(C(=O)Nc3cc(-c4cccc5[nH]ccc45)cc4[nH]ncc34)cs2)CC1', 'PIK3CB (Human) (UniProt P42338)', 1.58),
  ('Cc1nc(C(=O)Nc2cc(-c3cccc(O)c3)cc3[nH]ncc23)cs1', 'PIK3CB (Human) (UniProt P42338)', 7.94);

Asked: Look up and report IC50, with PIK3CB (Human) (UniProt P42338) as system, for COc1ncc(-c2cc(NC(=O)c3csc(CN4C[C@@H](C)O[C@@H](C)C4)n3)c3cn[nH]c3c2)cc1NS(C)(=O)=O
Given back: 2.51
